# System: Crabgrass
# test details: Pre-emergent control of seed germination, soil drench
# Type: in vivo
# test conditions: pre-emergence, Crab Grass, 1/8 Lb/Acre
assay readout: % Control

molecule: Clc1cccc(C2(CC(Cl)(Cl)Cl)CO2)c1 (stereo not shown)
assay readout: % Control
result: 100%
//
molecule: Clc1ccc(C2(CC(Cl)(Cl)Cl)CO2)cc1 (stereo not shown) [Cmpd. B, reference compound]
assay readout: % Control
result: 20%
//
molecule: ClC(Cl)(Cl)CC1(c2ccc(Br)cc2)CO1 (stereo not shown) [Cmpd. D, reference compound]
assay readout: % Control
result: 0%

% Control recorded for this molecule, ClC(Cl)(Cl)CC1(c2cccc(Br)c2)CO1 (stereo not shown) , is 95%
